Neprilysin (Homo sapiens, UniProt P08473) IC50 data
Sequence (P08473 whole entry): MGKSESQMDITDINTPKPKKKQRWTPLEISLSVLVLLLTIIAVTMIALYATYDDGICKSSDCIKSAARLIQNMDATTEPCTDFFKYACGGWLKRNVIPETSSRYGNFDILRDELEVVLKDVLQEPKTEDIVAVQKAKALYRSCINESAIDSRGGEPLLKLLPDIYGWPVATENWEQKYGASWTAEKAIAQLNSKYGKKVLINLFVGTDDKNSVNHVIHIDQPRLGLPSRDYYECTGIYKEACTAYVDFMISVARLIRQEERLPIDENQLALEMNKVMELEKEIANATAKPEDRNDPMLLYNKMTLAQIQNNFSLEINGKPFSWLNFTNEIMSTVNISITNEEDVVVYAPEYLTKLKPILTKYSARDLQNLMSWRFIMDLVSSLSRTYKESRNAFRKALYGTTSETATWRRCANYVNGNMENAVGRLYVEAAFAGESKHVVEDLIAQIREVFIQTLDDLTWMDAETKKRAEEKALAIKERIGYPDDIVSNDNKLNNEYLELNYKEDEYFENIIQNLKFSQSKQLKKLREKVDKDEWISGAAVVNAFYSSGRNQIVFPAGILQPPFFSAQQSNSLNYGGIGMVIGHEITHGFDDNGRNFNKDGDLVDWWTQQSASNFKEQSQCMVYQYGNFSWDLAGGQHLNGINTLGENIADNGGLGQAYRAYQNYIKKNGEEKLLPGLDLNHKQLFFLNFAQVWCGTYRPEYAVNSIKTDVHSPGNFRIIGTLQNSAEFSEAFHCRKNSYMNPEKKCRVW
The reply should contain only the number, in nM.

Before answering, review these 5 worked examples.
- smiles-text: "O=C(O)[C@H](Cc1ccc2ccccc2c1)NC(=O)N(Cc1ccc2c(c1)Cc1ccccc1-2)C[C@H](O)C(=O)O"
  experimental-system: "Neprilysin (Homo sapiens, UniProt P08473)"
  IC50, nM: 19000
- smiles-text: "CC(C)(C)CN(C[C@H](O)C(=O)O)C(=O)N[C@@H](Cc1ccc2ccccc2c1)C(=O)O"
  experimental-system: "Neprilysin (Homo sapiens, UniProt P08473)"
  IC50, nM: 5
- smiles-text: "CC(C)CN(C[C@H](O)C(=O)O)C(=O)N[C@@H](Cc1c[nH]c2ccccc12)C(=O)O"
  experimental-system: "Neprilysin (Homo sapiens, UniProt P08473)"
  IC50, nM: 8
- smiles-text: "CC(C)CN(C[C@H](O)C(=O)O)C(=O)N[C@@H](Cc1ccc2ccccc2c1)C(=O)O"
  experimental-system: "Neprilysin (Homo sapiens, UniProt P08473)"
  IC50, nM: 4
- smiles-text: "CC(C)CN(C[C@H](O)C(=O)O)C(=O)N[C@@H](Cc1ccc(-c2ccccc2)cc1)C(=O)O"
  experimental-system: "Neprilysin (Homo sapiens, UniProt P08473)"
  IC50, nM: 10

// switching to the query molecule
Task: Answer with IC50 of CC(C)CN(CP(=O)(O)O)C(=O)N[C@@H](Cc1ccc2ccccc2c1)C(=O)O measured for Neprilysin (Homo sapiens, UniProt P08473).
Result: 2
